pIC50: −log10 of the molar value.
The following compounds have recorded pIC50 on human GST-DYRK1A (Homo sapiens).

1. CCNc1nc(Nc2ccc(C(=O)N3CCC(N4CCOCC4)CC3)c3c2OCCO3)nc2[nH]cc(C(F)(F)F)c12
6.52 to 7.00
2. CNc1nc(Nc2ccc(S(C)(=O)=O)cc2OC)nc2[nH]ccc12 [Example 4, 2,2,2-trifluoroacetate]
6.00 to 6.52
3. N#Cc1c[nH]c2nc(Nc3ccc(C(=O)N4CCOCC4)c4c3OCC4)nc(NC3CCCC3)c12
6.00 to 6.52
4. COc1cc(S(=O)(=O)N2CCOCC2)ccc1Nc1nc(NCC2CC2)c2cc[nH]c2n1 [Example 31, 2,2,2-trifluoroacetate]
6.00 to 6.52
5. N#Cc1c[nH]c2nc(Nc3ccc(C(=O)N4CCCC4)c4c3OCCO4)nc(NC3CCCCC3)c12
6.00 to 6.52

Lab entry: human GST-DYRK1A (Homo sapiens) assay, compound COc1cc(P2(=O)CCN(C3COC3)CC2)ccc1Nc1nc(N[C@H]2CCOC2)c2c(C#N)c[nH]c2n1 , pIC50 = 6.00 to 6.52

Lab entry: human GST-DYRK1A (Homo sapiens) assay, compound COc1cc(S(=O)(=O)N2CCC(N3CCOCC3)CC2)ccc1Nc1nc(NC2CCC2)c2cc[nH]c2n1 [Example 23, 2,2,2-trifluoroacetate] , pIC50 = 6.00 to 6.52

Lab entry: human GST-DYRK1A (Homo sapiens) assay, compound N#Cc1c[nH]c2nc(Nc3ccc(C(=O)N4CC(CO)(CO)C4)c4c3OCCO4)nc(N[C@H]3CCOC3)c12 , pIC50 = 6.00 to 6.52

Lab entry: human GST-DYRK1A (Homo sapiens) assay, compound COc1cc(P(C)(C)=O)ccc1Nc1nc(NC(C)C)c2c(C(F)(F)F)c[nH]c2n1 , pIC50 = 6.00 to 6.52

Lab entry: human GST-DYRK1A (Homo sapiens) assay, compound O=C(c1ccc(Nc2nc(NC3CCCC3)c3c(C(F)(F)F)c[nH]c3n2)c2c1CCO2)N1CCC(N2CCOCC2)CC1 , pIC50 = 6.00 to 6.52

* * *

Tested on: human DYRK1A and tau
Assay: Inhibition of tau phosphorylation, ClariCELL Kinase Cell-Based Assay, HEK 293 cells expressing human DYRK1A and tau
Settings: HEK293, tau phosphorylation, compound 0.5 uM
observedProperty: inhibition at 0.5 µM (%)
Give the number; % is assumed, so skip it.

1) COCCNc1nc(Nc2ccc(C(=O)N3CCOCC3)c3c2OCC3)nc2[nH]cc(C(F)(F)F)c12
51.5

Lab entry: human DYRK1A and tau assay, molecule O=C(c1ccc(Nc2nc(C3CC3)c3c(C(F)(F)F)c[nH]c3n2)c2c1CCO2)N1CC[C@H](N2CCOCC2)C1 , inhibition at 0.5 µM = 36.5

* * *

System: human DYRK1A and tau
Assay: Inhibition of tau phosphorylation, ClariCELL Kinase Cell-Based Assay, HEK 293 cells expressing human DYRK1A and tau
Conditions: HEK293, tau phosphorylation, compound 0.5 uM
Procedure: An inhibitory effect on tau phosphorylation was determined using the ClariCELL™ Kinase Cell-Based Assay service (commercially available from CamaBio USA, Inc.). Human embryonic kidney (HEK 293) cells temporarily expressing human DYRK1A and tau were exposed to the compound, and then lysed to release cell proteins. In this case, the released tau was captured on a plate, and a degree of phosphorylation was quantified by ELISA using a tau phosphorylation-specific antibody.
observedProperty: inhibition at 0.5 µM (%)
Give the number; % is assumed, so skip it.

Some molecules with recorded inhibition at 0.5 µM:
1) O=C(c1ccc(Nc2nc(NCC3CC3)c3c(C(F)(F)F)c[nH]c3n2)c2c1CCO2)N1CCC(N2CCOCC2)CC1
46.9
2) O=C(c1ccc(Nc2nc(NC3CCC3)c3c(C(F)(F)F)c[nH]c3n2)c2c1OCCO2)N1CCN(C2COC2)CC1
39.4
3) COc1cc(S(=O)(=O)N2CCC(N3C[C@H]4C[C@@H]3CO4)CC2)ccc1Nc1nc(C2CC2)c2c(C(F)(F)F)c[nH]c2n1
35.8

For CNc1nc(Nc2ccc(S(=O)(=O)N3CCC(N4CCOCC4)CC3)c3c2OCCO3)nc2[nH]cc(C(F)(F)F)c12 the molecule record lists inhibition at 0.5 µM as 58.8

For O=C(c1ccc(Nc2nc(N[C@H]3CCOC3)c3c(C(F)(F)F)c[nH]c3n2)c2c1OCCO2)N1CCN(C2COC2)CC1 the molecule record lists inhibition at 0.5 µM as 55.4

For CCNc1nc(Nc2ccc(S(=O)(=O)N3CCC(N4CCOCC4)CC3)c3c2OCCO3)nc2[nH]cc(C(F)(F)F)c12 the molecule record lists inhibition at 0.5 µM as 41.6

For CNc1nc(Nc2ccc(S(=O)(=O)N3CCC(N4CCOCC4)CC3)cc2OC)nc2[nH]cc(C(F)(F)F)c12 [Example 157, 2,2,2-trifluoroacetate] the molecule record lists inhibition at 0.5 µM as 71

For CNc1nc(Nc2ccc(C(=O)N3CCN(C4COC4)CC3)c3c2OCCO3)nc2[nH]cc(C(F)(F)F)c12 the molecule record lists inhibition at 0.5 µM as 41.1

These entries and their values trace back to patent US20230066011A1.
